# experimental-protocol: solvent given as SMILES
# run-parameters: in C1CCOC1
Reported fluorescence lifetime values are given for each entry in this list.
Could you give me the number in ns? Just the number is fine.

Exam item: Which fluorescence lifetime is listed for COc1cc2c(cc1-c1ccsc1)Cc1c3c(c4c(c1-2)-c1cc(OC)c(-c2ccsc2)cc1C4)C(=O)N(CCC(C)C)C3=O ?
Marked response: 3.42

Exam item: Name the reported fluorescence lifetime value associated with the compound Cc1ccc(C2=C3C=CC(C#Cc4ccccc4)=[N+]3[B-](F)(F)n3c(C#Cc4ccccc4)ccc32)cc1
Marked response: 6.62

Exam item: If you can, please state the reported fluorescence lifetime value of COc1ccc2cc([C@H](C)C(=O)O)ccc2c1 .
Marked response: 11

Exam item: // lookup fluorescence lifetime for COc1ccccc1-c1c(-c2ccccc2O)nc(-c2ccc(C(F)(F)F)cc2)n1-c1ccc(C)cc1
Marked response: 2.82

* * *

# experimental-protocol: solvent given as SMILES
# run-parameters: in ClCCl
Listed here: items and their measured fluorescence lifetime.
Write down the numeric answer in ns and omit the unit.

smiles-repr	endpoint-unit	fluorescence lifetime
CN(C)c1ccc(/C=C2\CC/C(=C\c3ccc(C#N)cc3)C2=O)cc1	ns	1.29
CCCCCCCCCCCCN1C(=O)c2c(c3ccc4cc(-c5ccc(-c6ccccc6)cc5)c(OC)cc4c3c3c2ccc2cc(-c4ccc(-c5ccccc5)cc4)c(OC)cc23)C1=O	ns	6.19
CC(C)[Si](C#Cc1ccc(C#C[Si](C(C)C)(C(C)C)C(C)C)c2nc3ccccc3nc12)(C(C)C)C(C)C	ns	0.37

Exam item: Reported fluorescence lifetime, molecule CC(C)[Si]1(C(C)C)c2ccccc2-c2ccc(N(C)C)cc21 : ____
Marked response: 4

Exam item: Look up fluorescence lifetime: CC(C)(C)c1ccc2c(c1)c1cc(C(C)(C)C)ccc1n2-c1ccc(-c2ccc3c(c2)C2(c4cc(-c5ccc(-n6c7ccc(C(C)(C)C)cc7c7cc(C(C)(C)C)ccc76)cc5)ccc4-3)c3ccccc3S(=O)(=O)c3ccccc32)cc1
Marked response: 1.8

Exam item: Please look up its fluorescence lifetime: COc1ccc2nc(N)sc2c1
Marked response: 3.86

Exam item: Looking for the measured fluorescence lifetime of CCCCCCCCOc1ccc(C2=C3C(C)=C(C#Cc4ccc(B(c5c(C)cc(C)cc5C)c5c(C)cc(C)cc5C)cc4)C(C)=[N+]3[B-](F)(F)n3c(C)c(C#Cc4ccc(B(c5c(C)cc(C)cc5C)c5c(C)cc(C)cc5C)cc4)c(C)c32)cc1 , can you help?
Marked response: 4.39

* * *

Listing of recorded fluorescence lifetime by entry.
# experimental-protocol: solvent given as SMILES
# run-parameters: in C1CCCCC1
Units required after the number.

Use the examples below as a reference point.
> print(dat)
                                smiles.repr  reported
1  CC[Si](CC)(CC)Oc1cccc(O[Si](CC)(CC)CC)c1-c1c2ccccc2c(-c2c(O[Si](CC)(CC)CC)cccc2O[Si](CC)(CC)CC)c2ccccc12    7.8 ns
2              CN(C)c1ccc(C(=O)c2ccccc2)cc1    0.1 ns
3             COC(=O)c1nc(Br)c(-c2ccccc2)o1   0.49 ns
4  Cc1ccc(C2=C3C=CC(C#Cc4ccccc4)=[N+]3[B-](F)(F)n3c(Cl)ccc32)cc1   4.31 ns
5                            COc1ccc(OC)cc1    3.8 ns

Exam item: Given the entry Nc1cccc2cc3ccccc3cc12 , report its measured fluorescence lifetime.
Marked response: 29 ns

Exam item: Dear colleague, I am looking for the recorded fluorescence lifetime of the following compound: CN(C)c1ccc2c(c1)-c1ccccc1C2=O
Marked response: 6.1 ns
